# assayed-target: T1, Rluc-ADGRG2-ΔGPS-β Y765A (mouse, UniProt Q8CJ12-3 38-995, Y765A)
# T1 construct: ADGRG2 (GPR64), mouse, ADGRG2-ΔGPS-β: the entire ECD removed; source: HEK293, transfected, on cells; not shown: Rluc, N-terminal, kept
# T1 sequence (Q8CJ12 other isoform, or with tags, fused parts or gaps Y765A | Y765A | Y765A Y765A): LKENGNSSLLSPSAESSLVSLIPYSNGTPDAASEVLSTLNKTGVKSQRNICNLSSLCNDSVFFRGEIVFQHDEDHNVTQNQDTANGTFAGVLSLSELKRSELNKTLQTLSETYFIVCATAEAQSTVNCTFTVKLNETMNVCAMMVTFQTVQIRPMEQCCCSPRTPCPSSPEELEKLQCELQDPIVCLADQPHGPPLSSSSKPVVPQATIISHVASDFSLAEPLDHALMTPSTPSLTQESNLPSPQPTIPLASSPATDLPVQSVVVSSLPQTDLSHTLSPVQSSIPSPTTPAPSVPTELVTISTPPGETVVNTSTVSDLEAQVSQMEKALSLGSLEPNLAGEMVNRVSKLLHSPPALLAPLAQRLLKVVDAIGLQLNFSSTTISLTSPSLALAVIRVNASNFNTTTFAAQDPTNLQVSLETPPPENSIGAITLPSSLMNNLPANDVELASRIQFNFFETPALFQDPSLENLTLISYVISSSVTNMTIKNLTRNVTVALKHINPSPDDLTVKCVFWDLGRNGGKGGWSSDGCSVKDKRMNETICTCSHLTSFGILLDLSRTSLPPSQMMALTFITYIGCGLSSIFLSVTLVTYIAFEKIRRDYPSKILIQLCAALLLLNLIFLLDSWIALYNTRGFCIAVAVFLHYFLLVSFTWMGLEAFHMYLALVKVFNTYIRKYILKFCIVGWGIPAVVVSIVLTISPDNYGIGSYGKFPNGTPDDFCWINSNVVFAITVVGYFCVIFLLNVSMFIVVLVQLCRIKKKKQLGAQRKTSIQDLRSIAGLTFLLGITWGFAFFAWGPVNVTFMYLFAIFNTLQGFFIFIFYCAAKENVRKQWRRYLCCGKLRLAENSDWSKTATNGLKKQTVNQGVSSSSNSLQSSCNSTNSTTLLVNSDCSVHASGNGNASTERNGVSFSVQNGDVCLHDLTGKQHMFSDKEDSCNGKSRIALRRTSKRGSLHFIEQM
# procedure-summary: FRET or BRET; HEK293 cells transfected with Rluc-ADGRG2-ΔGPS-β WT or mutants, stimulated by increasing concentrations of FITC-conjugated VPM-p15; saturation curves fitted with GraphPad; each experiment repeated 6 times
# experimental-conditions: one partner purified
Non-standard residues stand in square brackets, D forms with d. Primed or numbered codes have the meaning given here. No end group written: not given here. Phe(4-Me) = Cc1ccc(C[C@H](N)C(=O)O)cc1; FITC′ = not defined here
reported-endpoint: EC50 (nM)
Just the number in nM, nothing appended.

Specify reported EC50 for the binder shown: VS[Phe(4-Me)]GILLDLSRTSLP-{FITC′} [FITC-conjugated VPM-p15 (ADGRG2 Stachel peptide p15 T1V/F3Phe(4-Me))] 905
